Item-by-item account of growth inhibition
EXPERIMENT_DESCRIPTION: NCI Yeast Anticancer Drug Screen. Data for the rad50 strain (AID 155);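 further: 0% = growth of vehicle-only cultures of the same strain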
COND: S. cerevisiae rad50 strain growth inhibition; at 50.0 µM (retest, dose inferred, filed as 5.0); stronger effect = higher value
Compounds without any hit were thinned out: in the full panel of roughly 79,000, 15% have a hit.

COMPOUND | growth inhibition [%]
Oc1c(-c2ccccc2)cc(-[n+]2c(-c3ccccc3)cc(-c3ccccc3)cc2-c2ccccc2)cc1-c1ccccc1 | 99
c1cc2c(cc1C1OC[C@H]3[C@@H](c4ccc5c(c4)OCO5)OC[C@@H]13)OCO2 (some centres undefined) | 3
CNC(=O)OCC1C2=C(C(=O)C(C)=C(N)C2=O)N2CC3C(N3C)C12OC (centres undefined) | 63
COc1cccc2c1C(=O)c1c(O)c3c(c(O)c1C2=O)C[C@@](O)(/C(C)=N\O)C[C@@H]3OC1CC(N)C(O)C(C)O1 (some centres undefined) | 93
C[CH2][Sn]([Cl])([CH2]C)[O][Sn]([CH2]C)([CH2]C)[O][Sn]([Cl])([CH2]C)[CH2]C | 79
O=C1C(F)=C(N2CC2)C(=O)C(F)=C1N1CC1 | 99
C(CCC[Te][Te]CCCCCCOC1CCCCO1)CCOC1CCCCO1 (centres undefined) | 39
CC(=O)C(Br)C(C)=O.CC(=O)C(Br)C(C)=O.CC(=O)C(Br)C(C)=O.[Rh] | -2
COc1ccc(C(Cc2ccc(Cl)c(Cl)c2)NCCO)cc1 (centres undefined) | 37
